biological target: Human immunodeficiency virus type 1 reverse transcriptase (Human immunodeficiency virus 1)
measurement_label: pIC50
# reply with the number alone; pIC50 is -log10 of concentration in mol/L

Task: Bench note: what pIC50 did Cc1cc(C)c(Oc2cc(NC3CCN(Cc4ccc(S(C)(=O)=O)cc4)CC3)nc3ncnn23)c(C)c1 show?
Output: 6.30

---

tested on: Human immunodeficiency virus 1; test: Antiviral activity against HIV1 3B infected in human MT4 cells assessed as reduction in virus-induced cytopathic effect after 5 days by MTT assay; type: functional, organism-based; conditions: Human immunodeficiency virus 1, 3B, MT4, 120 h
measurement_label: EC50 (nM)
Please state the figure in nM; there is no need to write the unit.

Cc1ccc(CN2CCC(Nc3cc(Oc4c(C)cc(C)cc4C)n4ncnc4n3)CC2)cc1 : 72
Cc1cc(C)c(Oc2cc(NC3CCN(Cc4ccccc4F)CC3)nc3ncnn23)c(C)c1 : 48
CC(=O)c1ccc(CN2CCC(Nc3cc(Oc4c(C)cc(C)cc4C)n4ncnc4n3)CC2)cc1 : 8.7
Cc1cc(C)c(Oc2cc(NC3CCN(Cc4ccc(S(N)(=O)=O)cc4)CC3)nc3ncnn23)c(C)c1 : 27
Cc1cc(C)c(Oc2cc(NC3CCN(Cc4ccncc4)CC3)nc3ncnn23)c(C)c1 : 17
Cc1cc(C)c(Oc2cc(NC3CCN(Cc4c(F)cccc4F)CC3)nc3ncnn23)c(C)c1 : 439
Cc1cc(C#N)cc(C)c1Oc1nc(Nc2ccc(C#N)cc2)nc(N)c1Br : 1.8
Cc1cc(C)c(Oc2cc(NC3CCN(Cc4ccccc4C)CC3)nc3ncnn23)c(C)c1 : 42

Task: Bench note: what EC50 did Cc1cc(C)c(Oc2cc(NC3CCN(CC4CCCCC4)CC3)nc3ncnn23)c(C)c1 show?
Output: 245

Task: Bench note: what EC50 did COC(=O)c1ccc(NC(=O)CN2CCC(Nc3cc(Oc4c(C)cc(C)cc4C)n4ncnc4n3)CC2)c(Cl)c1 show?
Output: 277

Task: Bench note: what EC50 did Cc1cc(C)c(Oc2cc(NC3CCN(Cc4ccc(C#N)cc4)CC3)nc3ncnn23)c(C)c1 show?
Output: 20
